- target of assay: Human B2 receptors (Homo sapiens, UniProt P30411)
- Construct: expressed in transfected cells; membranes used
- Sequence (P30411 1-364 isoform P30411-2): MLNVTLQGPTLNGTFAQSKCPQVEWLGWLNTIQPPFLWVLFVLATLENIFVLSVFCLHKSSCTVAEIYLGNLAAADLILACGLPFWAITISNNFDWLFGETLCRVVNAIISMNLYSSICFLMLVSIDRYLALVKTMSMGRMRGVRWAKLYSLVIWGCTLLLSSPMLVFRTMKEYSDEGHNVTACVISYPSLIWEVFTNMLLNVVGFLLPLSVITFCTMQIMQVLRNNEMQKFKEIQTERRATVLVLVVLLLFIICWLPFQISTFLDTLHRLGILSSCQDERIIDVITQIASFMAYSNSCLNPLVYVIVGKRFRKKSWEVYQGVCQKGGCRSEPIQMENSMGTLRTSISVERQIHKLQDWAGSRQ
- run description: Human B2 binding, cloned receptor in CHO cell membranes, 3H-bradykinin
- experimental parameters: CHO clone S34f membranes, 0.3 nM 3H-Bradykinin, room temperature 45 min; read-out: Human Receptor Clone B2 receptor binding (Ki) (converted)
- Procedure: Human B2 receptors were cloned and expressed in Chinese hamster ovary cells. RNA was isolated from human lung fibroblasts (CCD-16 LU obtained from the ATCC) using the method of Chirgwin et al (Biochemistry 18:5294 (1979)). […] Cells containing the receptor were grown to confluence and harvested by scraping into PBS and homogenized. […] Radioactivity was measured on a Wallac 1450 MicroBeta LSC. […]
property label: Ki (pM)
Please respond with the number in pM and leave the unit unwritten.

Just so you know, measured Ki for N=C(N)NCCC[C@H](NC(=O)[C@@H]1C[C@@H]2CCCC[C@@H]2N1C(=O)[C@H](NC(=O)[C@H](CO)NC(=O)[C@@H](NC(=O)CNC(=O)[C@@H]1C[C@@H](O)CN1C(=O)[C@@H]1CCCN1C(=O)[C@H](CCCNC(=N)N)NC(=O)[C@@H](CCCNC(=N)N)NC(=O)C1=CN2CCC1CC2)C1Cc2ccccc2C1)C1Cc2ccccc2C1)C(=O)O came out at 1.41

Ki measured on N=C(N)NCCC[C@@H](N)C(=O)N[C@@H](CCCNC(=N)N)C(=O)N1CCC[C@H]1C(=O)N1C[C@H](O)C[C@H]1C(=O)NCC(=O)N[C@@H](Cc1cccs1)C(=O)N[C@@H](CO)C(=O)N[C@@H](C(=O)N1Cc2ccccc2C[C@H]1C(=O)N[C@@H](CCCNC(=N)N)C(=O)O)C1Cc2ccccc2C1 = 12.6

// provenance: patent US5648336A
